// Binding Ratio (Sample over unstained MFIs) lookup, one value per entry
Target: T1, human IL-2Rγ endogenously expressed on NK-92 and Jurkat cells (human, UniProt P31785 23-369)
T1 construct: whole, on cells; on cells it stands with the other receptor subunits of the cell line; also called IL-2Rg; CD132
T1 sequence (looked up): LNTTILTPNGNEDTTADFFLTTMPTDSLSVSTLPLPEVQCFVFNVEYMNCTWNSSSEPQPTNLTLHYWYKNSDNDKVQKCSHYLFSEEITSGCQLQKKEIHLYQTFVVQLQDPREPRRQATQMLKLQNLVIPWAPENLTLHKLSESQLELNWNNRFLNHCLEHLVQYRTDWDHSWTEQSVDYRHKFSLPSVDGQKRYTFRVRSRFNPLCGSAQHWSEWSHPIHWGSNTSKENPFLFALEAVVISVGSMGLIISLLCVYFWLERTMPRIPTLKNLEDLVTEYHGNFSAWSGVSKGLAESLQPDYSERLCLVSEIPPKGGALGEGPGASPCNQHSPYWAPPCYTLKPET
Assay: flow cytometry, 10 ug/ml antibody, NK-92 cells (endogenous human IL-2Rg)
Lab note: record just the number, no unit beside it.

binder="H4H12890P (antibody, human IgG4 S228P, kappa, V domains shown, fully human anti-IL2Rg antibody, human IgG4) VH: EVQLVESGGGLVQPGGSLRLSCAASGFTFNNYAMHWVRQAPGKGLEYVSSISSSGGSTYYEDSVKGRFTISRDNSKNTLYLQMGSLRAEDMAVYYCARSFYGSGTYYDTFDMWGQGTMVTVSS VL: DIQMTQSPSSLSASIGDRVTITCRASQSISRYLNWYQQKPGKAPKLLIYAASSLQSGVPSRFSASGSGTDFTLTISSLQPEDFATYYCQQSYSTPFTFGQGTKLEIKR" measured_result=30

[in] Which Binding Ratio (Sample over unstained MFIs) is listed for H4H12889P (antibody, human IgG4 S228P, kappa, V domains shown, fully human anti-IL2Rg antibody, human IgG4; also called REGN7257) VH: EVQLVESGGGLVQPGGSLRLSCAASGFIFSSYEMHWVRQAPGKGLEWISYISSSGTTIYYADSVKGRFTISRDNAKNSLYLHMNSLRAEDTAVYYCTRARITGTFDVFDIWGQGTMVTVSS VL: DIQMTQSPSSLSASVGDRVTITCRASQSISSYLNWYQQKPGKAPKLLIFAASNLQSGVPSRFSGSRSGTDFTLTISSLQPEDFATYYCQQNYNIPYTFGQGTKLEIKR ?
[out] 94
